All figures here come from patent US12605346B2.

- Assay Notes: Plasma curcumin concentration (AUC and Cmax) after administration to rats
- Type: in vivo
- Particulars: rat, oral, plasma curcumin after β-glucuronidase treatment
Metric: Cmax (ng/mL)

1. COc1cc(/C=C/C(=O)/C=C(O)/C=C/c2ccc(O)c(OC)c2)ccc1O [Comparative Example 2, curcumin] :: 85

---

- Assay Notes: Plasma curcumin concentration (AUC and Cmax) after administration to rats
- Format: in vivo
- Particulars: rat, oral, plasma curcumin after β-glucuronidase treatment, 0 to 6 hrs
Metric: AUC (ng·h/mL)

1) COc1cc(/C=C/C(=O)/C=C(O)/C=C/c2ccc(O)c(OC)c2)ccc1O :: 292
